Parameter: phosphorylation enrichment. Scope: all listed entries.
Tested on: Fer (mouse)
assay-procedure: phosphorylation enrichment, bacterial display (enrichment ratio); higher = better substrate or ligand; peptides without Tyr show the background
property-name: phosphorylation enrichment

query-sequence: AFDNLYYWDQD [ERBB2_Y1221]
property-name: phosphorylation enrichment
meas-value: 3.07

query-sequence: KLIETCFSKNY [PLP1_Y50_Y50C]
property-name: phosphorylation enrichment
meas-value: 0.47

query-sequence: PVQAADQKVVA [HBB_Y131_Y131D]
property-name: phosphorylation enrichment
meas-value: 0.482

query-sequence: IVRSLYEDQED [VHL_Y185_L188Q]
property-name: phosphorylation enrichment
meas-value: 0.523

query-sequence: VIVRMYDYHVL [RPF2_Y109_G106V]
property-name: phosphorylation enrichment
meas-value: 4.25

query-sequence: VDASYCGGRGV [ANTXR2_Y381_Y381C]
property-name: phosphorylation enrichment
meas-value: 0.48

query-sequence: FSAPNYCFRCG [PPP2CA_Y265_YF]
property-name: phosphorylation enrichment
meas-value: 0.415

query-sequence: TDLAFYLVREG [ASL_Y376_K380E_YF]
property-name: phosphorylation enrichment
meas-value: 0.555

query-sequence: ADARMYGVLPW [PLP1_Y207]
property-name: phosphorylation enrichment
meas-value: 0.594

query-sequence: TEFSQYMRRKN [MAX_Y73_I71S_YF]
property-name: phosphorylation enrichment
meas-value: 0.516

query-sequence: VTPVMYTYDEY [COL10A1_Y623_G618V]
property-name: phosphorylation enrichment
meas-value: 0.542

query-sequence: ICANKYMVESC [RPL10_Y75_K78E]
property-name: phosphorylation enrichment
meas-value: 0.455

query-sequence: AQQPIYIRVEG [NLRP7_Y318_V319I]
property-name: phosphorylation enrichment
meas-value: 0.588

query-sequence: AFRRGYFDEEM [PLEC_Y2971_YF]
property-name: phosphorylation enrichment
meas-value: 0.445

query-sequence: YRTPGYREVVI [TNS2_Y673_A670T]
property-name: phosphorylation enrichment
meas-value: 0.399

query-sequence: KDGIGYISAAE [CALM2_Y100_N98I]
property-name: phosphorylation enrichment
meas-value: 0.464

query-sequence: HEPKGYNANFC [TGFB2_Y341]
property-name: phosphorylation enrichment
meas-value: 0.581

query-sequence: LNLKDYNLVGG [GNAQ_Y356_E355D]
property-name: phosphorylation enrichment
meas-value: 0.464

query-sequence: KDFTIHNPNLL [VANGL1_Y290_Y290H]
property-name: phosphorylation enrichment
meas-value: 0.353

query-sequence: SVTCTYSPTLN [TP53_Y126_A129T]
property-name: phosphorylation enrichment
meas-value: 0.667

query-sequence: VFFDLYGGEKF [PTPN11_Y66_D61V_YF]
property-name: phosphorylation enrichment
meas-value: 0.509

query-sequence: FRKNIYNVKST [SYNE2_Y575_YF]
property-name: phosphorylation enrichment
meas-value: 0.348

query-sequence: SLGSPYEQPPR [PDLIM4_Y137_G138E]
property-name: phosphorylation enrichment
meas-value: 0.474

query-sequence: RFMELYDLNRD [BBS2_Y648_YF]
property-name: phosphorylation enrichment
meas-value: 0.703

query-sequence: YSGIYYKPESL [L2HGDH_Y103_H98Y]
property-name: phosphorylation enrichment
meas-value: 9.95

query-sequence: GSTLSYGRDGR [MATR3_Y158_P154S]
property-name: phosphorylation enrichment
meas-value: 0.374

query-sequence: TKDTFYKQPMF [GBA_Y451]
property-name: phosphorylation enrichment
meas-value: 0.362

query-sequence: ERCAQYKKDGA [ALDOA_Y138]
property-name: phosphorylation enrichment
meas-value: 0.341

query-sequence: KDHPDYEYQPR [SOX9_Y172_K173E]
property-name: phosphorylation enrichment
meas-value: 0.465

query-sequence: IEDPYYGNDSD [ACP1_Y133]
property-name: phosphorylation enrichment
meas-value: 0.548

query-sequence: GVRTIYTIDGS [DCLK2_Y124]
property-name: phosphorylation enrichment
meas-value: 0.52

query-sequence: YGMSSYITRED [FNDC3B_Y180_T179S]
property-name: phosphorylation enrichment
meas-value: 0.524

====

study-target: c-Src SH2
assay-procedure: SH2 binding enrichment of the phosphorylated peptide, bacterial display (enrichment ratio); higher = better substrate or ligand; peptides without Tyr show the background
Use 1.0 when the recorded SH2 binding enrichment is no lower than 0.7; use 0.0 when it is lower.

query-sequence: RHSGSYLVTSV [APC_Y2838]
study-target: c-Src SH2
class-label: 0.0
//
query-sequence: RRETPYGGGGG [FUS_Y526_R524T]
study-target: c-Src SH2
class-label: 0.0
//
query-sequence: LSSVSYVGCSL [ADGRD1_Y571_I569V]
study-target: c-Src SH2
class-label: 0.0
//
query-sequence: PSSNLYFRCLT [CNGA3_Y168_W171C_YF]
study-target: c-Src SH2
class-label: 0.0
//
query-sequence: TQRPFYKGGGG [TYROBP_Y112_YF]
study-target: c-Src SH2
class-label: 0.0
//
query-sequence: DRPASYKKKSM [PDGFRA_Y768]
study-target: c-Src SH2
class-label: 0.0
//
query-sequence: DEEEEYEYMNR [ERBB3_Y1197_D1194E]
study-target: c-Src SH2
class-label: 0.0
//
query-sequence: AKRKNYAPVTM [CFAP47_Y557_A561T]
study-target: c-Src SH2
class-label: 1.0
//
query-sequence: EDGRLYAVKRS [PKMYT1_Y136]
study-target: c-Src SH2
class-label: 0.0
//
query-sequence: RMLREYQELMS [KRT74_Y425]
study-target: c-Src SH2
class-label: 1.0
//
query-sequence: IAINKYEVSLI [MYO7A_Y2136_G2137E]
study-target: c-Src SH2
class-label: 0.0
//
query-sequence: ALIKAYVKAVA [SMN1_Y43_D44V]
study-target: c-Src SH2
class-label: 0.0
//
query-sequence: GHLFAYNWISI [BEST1_Y227_D228N_YF]
study-target: c-Src SH2
class-label: 1.0
//
query-sequence: FKEDPYLVVNP [MCM6_Y810_E806K_YF]
study-target: c-Src SH2
class-label: 0.0
//
query-sequence: CENCHYPIVPL [LCK_Y25]
study-target: c-Src SH2
class-label: 1.0
//
query-sequence: EKMWSYMKSAE [GRIA3_Y705]
study-target: c-Src SH2
class-label: 0.0
//
query-sequence: GLGVTYEQALA [MAP2_Y996]
study-target: c-Src SH2
class-label: 0.0
//
query-sequence: QFLMMYVWSAS [ABCD1_Y337_K336M]
study-target: c-Src SH2
class-label: 0.0
//
query-sequence: DELDKYSEVLK [TPM1_Y60_A63V]
study-target: c-Src SH2
class-label: 1.0
//
query-sequence: IRKDLYSNNVL [ACTC1_Y296_A297S]
study-target: c-Src SH2
class-label: 0.0
//
query-sequence: CSEEMYCLMLQ [RET_Y981_R982C]
study-target: c-Src SH2
class-label: 1.0
//
query-sequence: YGMSSYITRED [FNDC3B_Y180_T179S]
study-target: c-Src SH2
class-label: 0.0
//
query-sequence: DPTNTYARPAE [SGMS2_Y24]
study-target: c-Src SH2;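 further: peptide library displayed on the E. coli surface as eCPX fusions, selected cells deep-sequenced, score is each peptide's frequency after selection divided by its frequency in the input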
class-label: 1.0

====

Parameter: phosphorylation enrichment. Scope: all listed entries.
study-target: EPHB1 (UniProt P54762)
Sequence (P54762 whole entry, looked up): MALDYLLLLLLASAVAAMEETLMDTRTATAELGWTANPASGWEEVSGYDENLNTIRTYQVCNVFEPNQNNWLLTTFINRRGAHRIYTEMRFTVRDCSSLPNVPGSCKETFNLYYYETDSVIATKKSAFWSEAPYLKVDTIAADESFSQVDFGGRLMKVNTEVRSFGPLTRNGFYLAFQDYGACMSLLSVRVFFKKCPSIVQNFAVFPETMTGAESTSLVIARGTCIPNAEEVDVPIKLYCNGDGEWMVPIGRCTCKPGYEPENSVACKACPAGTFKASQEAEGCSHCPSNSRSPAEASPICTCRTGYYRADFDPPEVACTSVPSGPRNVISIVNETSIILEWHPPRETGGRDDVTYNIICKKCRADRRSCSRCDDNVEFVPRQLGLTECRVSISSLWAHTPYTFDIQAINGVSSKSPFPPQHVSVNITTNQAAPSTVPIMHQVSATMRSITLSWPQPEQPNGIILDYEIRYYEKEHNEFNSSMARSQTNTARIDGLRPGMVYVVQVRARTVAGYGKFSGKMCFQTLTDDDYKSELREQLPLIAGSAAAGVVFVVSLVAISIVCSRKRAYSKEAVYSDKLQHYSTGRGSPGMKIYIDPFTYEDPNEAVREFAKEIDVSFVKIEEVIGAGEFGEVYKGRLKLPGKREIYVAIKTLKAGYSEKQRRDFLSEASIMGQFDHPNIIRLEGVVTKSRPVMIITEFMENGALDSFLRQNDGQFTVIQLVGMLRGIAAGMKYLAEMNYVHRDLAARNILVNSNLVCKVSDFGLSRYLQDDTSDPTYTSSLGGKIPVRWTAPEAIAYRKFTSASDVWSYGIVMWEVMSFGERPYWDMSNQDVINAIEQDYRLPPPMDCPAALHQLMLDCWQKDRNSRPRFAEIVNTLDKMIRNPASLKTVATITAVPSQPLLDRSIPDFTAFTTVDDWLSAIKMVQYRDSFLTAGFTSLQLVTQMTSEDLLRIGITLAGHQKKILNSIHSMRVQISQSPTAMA
assay-procedure: phosphorylation enrichment, bacterial display (enrichment ratio); higher = better substrate or ligand; peptides without Tyr show the background
property-name: phosphorylation enrichment

query-sequence: TVNIRYLLFPS [SERAC1_Y548_S543T]
meas-value: 0.728
//
query-sequence: GLGVTYEQALA [MAP2_Y996]
meas-value: 0.48
//
query-sequence: IRKDLYSNNVL [ACTC1_Y296_A297S]
meas-value: 0.497
//
query-sequence: SHNKFYMLVAR [MFSD8_Y134_YF]
meas-value: 0.673
//
query-sequence: KAWTIYRPEDS [ZBP1_Y165]
meas-value: 0.461
//
query-sequence: YARECYSALPQ [SARS2_Y52_G51C]
meas-value: 0.712
//
query-sequence: FVPSNYVAEDR [FRK_Y104_I100V_YF]
meas-value: 0.527
//
query-sequence: LLINKYGLSAH [SCP2_Y151]
meas-value: 0.71
//
query-sequence: RWGQKYMTAVV [CYBA_Y72]
meas-value: 0.494
//
query-sequence: TFHNTYHSHMR [IL1RAPL1_Y615_Q618H]
meas-value: 0.367
//
query-sequence: DVFLKHLNFAT [PDE6B_Y212_Y212H]
meas-value: 0.547
//
query-sequence: ARRHPYFYAPE [ALB_Y172]
meas-value: 0.488
//
query-sequence: DGFIDYAEFAK [MCFD2_Y138_YF]
meas-value: 0.793
//
query-sequence: IIEDPYYGNDS [ACP1_Y132]
meas-value: 0.561
//
query-sequence: TEFSQYMRRKN [MAX_Y73_I71S_YF]
meas-value: 0.538
//
query-sequence: LVMFIYAIFWM [SCN1A_Y1684_G1688W]
meas-value: 0.525
//
query-sequence: TEYIQYMRRKN [MAX_Y73]
meas-value: 0.404
//
query-sequence: RRIYSYRGHLW [VHL_Y112_H110Y]
meas-value: 1.17
